- Tested on: HeLa
- procedure_details: Proliferation assay (crystal violet), HeLa
- Format: cell-based
- experimental_setup: Homo sapiens, HeLa, 96 h, HeLa cells; 4 days incubation; crystal violet staining; read-out: IC50 inhibition of proliferation, HeLa
pIC50: −log10 of the molar value.
metric_name: pIC50

compound_string	pIC50
Cc1nsc(Nc2cnc(C(F)(F)F)cn2)c1C(=O)Nc1ccc(OCCCNC(=O)C(F)(F)F)nc1	5.89
Cc1nsc(Nc2cncc(C(F)(F)F)n2)c1C(=O)Nc1ccc(F)c(OC2CCN(C(=O)OC(C)(C)C)CC2)c1	6.04
Cc1nsc(Nc2cnc(C(F)(F)F)cn2)c1C(=O)Nc1ccc(OCCCN(C)CCF)nc1	5.96

---

Reported pIC50 values for the following compounds.
- Test system: HeLa
- procedure_details: Proliferation assay (crystal violet), HeLa
- Assay type: cell-based
- experimental_setup: Homo sapiens, HeLa, 96 h, HeLa cells; 4 days incubation; crystal violet staining; read-out: IC50 inhibition of proliferation, HeLa
pIC50: −log10 of the molar value.

compound	pIC50
COC(=O)CCCc1ccc(NC(=O)c2c(C)nsc2Nc2cc(C#N)ccn2)cc1 [Example 256]	< 5.00
Cc1nsc(Nc2cnc3ccccc3n2)c1C(=O)Nc1ccccc1S(C)(=O)=O [Example 188]	< 5.00

Req: Indicate its recorded pIC50; the compound in question is Cc1nsc(Nc2cncc(C(F)(F)F)n2)c1C(=O)Nc1ccc(OCCCN)nc1 [Example 209]
Resp: < 5.00

---

- Test system: HeLa
- procedure_details: Proliferation assay (crystal violet), HeLa
- Type: cell-based
- experimental_setup: Homo sapiens, HeLa, 96 h, HeLa cells; 4 days incubation; crystal violet staining; read-out: IC50 inhibition of proliferation, HeLa
- Experimental: Cultivated tumor cells (cells were ordered from ATCC, except HeLa-MaTu and HeLa-MaTu-ADR, which were ordered from EPO-GmbH, Berlin) were plated at a density of 1000 to 5000 cells/well, depending on the growth rate of the respective cell line, in a 96-well multititer plate in 200 μL of their respective growth medium supplemented 10% fetal calf serum. […] Absorbtion was determined by photometry at a wavelength of 595 nm. […] The IC50 values were determined by means of a 4 parameter fit.
pIC50: −log10 of the molar value.
metric_name: pIC50

compound	pIC50
Cc1nsc(Nc2cc(C#N)ccn2)c1C(=O)Nc1ccc(NC2CCCNC2)nc1 (stereo not shown)	< 5.00

Req: Report pIC50 for "CNC(=O)c1ccc(NC(=O)c2c(C)nsc2Nc2cnc3ccccc3n2)cc1F"
Resp: < 5.00

Req: Give me measured pIC50, please, for this compound: "Cc1nsc(Nc2cnc3ccccc3n2)c1C(=O)Nc1ccc(NC2CC2)nc1"
Resp: < 5.00

Req: Report measured pIC50; entry is "Cc1nsc(Nc2cnc(C(F)(F)F)cn2)c1C(=O)Nc1ccc(C(=O)NC2CN(CC(F)(F)F)C2)cc1"
Resp: < 5.00

---

Measured IC50 accompanies every entry in the list below.
- target_of_assay: CDK2/CycE (Homo sapiens)
- Construct: GST
- procedure_details: CDK2/CycE kinase assay (TR-FRET)
- experimental_setup: avg, read-out: CDK2 avg (IC50 [mol/l])

Recorded results for 5 compounds are shown here.
compound	target_of_assay	result
Cc1nsc(Nc2cnc(C(F)(F)F)cn2)c1C(=O)Nc1ccc(N(C)C)c(OCCCN(C)CCC(F)(F)F)c1	CDK2/CycE (Homo sapiens)	> 20 µM
Cc1nsc(Nc2cc(C#N)ccn2)c1C(=O)Nc1ccc(OCCCNC(=O)OC(C)(C)C)nc1	CDK2/CycE (Homo sapiens)	≥ 20 µM
Cc1nsc(Nc2cnc(C(F)(F)F)cn2)c1C(=O)Nc1ccc(N(C)C)c(OCCCN(C)CC(F)(F)F)c1	CDK2/CycE (Homo sapiens)	> 20 µM
COCCOc1ccc(NC(=O)c2c(C)nsc2Nc2nc3c(C(F)(F)F)cccc3s2)cc1F	CDK2/CycE (Homo sapiens)	≥ 20 µM
Cc1nsc(Nc2cnc(C(F)(F)F)cn2)c1C(=O)Nc1ccc(OCC2CCN(CC(F)F)CC2)nc1	CDK2/CycE (Homo sapiens)	≥ 20 µM

Req: Retrieve IC50 measured for Cc1nsc(Nc2cnc(C(F)(F)F)cn2)c1C(=O)Nc1ccc(F)c(OCC2CCCN(CCC(F)(F)F)C2)c1 (stereo not shown) and print it.
Resp: ≥ 20 µM

Req: Please look at this compound and report its IC50: "Cc1nsc(Nc2cnc3ccccc3n2)c1C(=O)Nc1cccc(NS(=O)(=O)C2CN(CC(F)(F)F)C2)c1"
Resp: > 20 µM
